Would you kindly list TGI for each of these compounds?
System: HS 578T breast
Experiment: NCI tumour cell line growth inhibition, 48 h

Exercise: TGI for Clc1nccc2c(-c3csc(-c4c[nH]c5ccc(Br)cc45)n3)c[nH]c12 ?
Solution: 17.8 µM

Exercise: Note, next up: COC1(CC[C@@H](C)COC2OC(CO)C(O)C(O)C2O)O[C@H]2C[C@H]3[C@@H]4CC=C5C[C@@H](OC6OC(CO)C(OC7OC(C)C(O)C(O)C7O)C(O)C6OC6OC(C)C(O)C(O)C6O)CC[C@]5(C)[C@H]4CC[C@]3(C)[C@H]2[C@@H]1C (stereo partly specified)
Solution: 3.99 µM

Exercise: Note, next up: O=C1CC(c2c[nH]c3ccc(F)cc23)C(=O)N1 (stereo unspecified)
Solution: > 100 µM

Exercise: Note, next up: CC(CSC(=N)N)C(N)=O (stereo unspecified)
Solution: > 100 µM

Exercise: Note, next up: O=C(Nc1ccc(Oc2ccc3nc(NC(=O)c4ccco4)[nH]c3c2)cc1)Nc1cc(C(F)(F)F)ccc1F
Solution: 3.42 µM

Exercise: Note, next up: O=C1Nc2ccc(Cl)cc2/C1=C\c1c(-c2ccc(Cl)cc2)nc2sc(C3CC3)nn12
Solution: 6.85 µM

Exercise: Note, next up: O=C1Oc2ccccc2C1C/C(=N\Nc1ccccc1)c1ccccc1O (stereo unspecified)
Solution: > 100 µM

Exercise: Note, next up: CC1(C)OC(=O)C(C)(C)C(=O)O1
Solution: > 100 µM

Exercise: Note, next up: CC(C)Oc1c(C2(c3ccccc3)SCCCS2)c(=O)c1=O
Solution: > 100 µM

Exercise: Note, next up: O=C1CC2OCC=C3CN4CCC56c7ccccc7N1C5C2C3CC46O (stereo unspecified)
Solution: > 100 µM

Exercise: Note, next up: CCOCC1(COCC)CCC(c2[nH]ncc2CN(C)CCNC)CC1
Solution: > 100 µM

Exercise: Note, next up: O=C1N/C(=N\N=C\c2ccccc2)C(c2ccccc2)O1 (stereo unspecified)
Solution: > 100 µM

Exercise: Note, next up: COC(=O)C1(NC(=O)C(Cc2ccccc2)N(C(=O)OC(C)(C)C)C(=O)OC(C)(C)C)CCCC1 (stereo unspecified)
Solution: > 100 µM

Exercise: Note, next up: CCN(CC)c1ccc(/C=C/C(=O)c2ccc(Nc3nc(Nc4ccccc4)nc(Nc4ccccc4)n3)cc2)cc1
Solution: 69.5 µM

Exercise: Note, next up: C1CNOCCCONCCCNOCCCONC1
Solution: > 100 µM

Exercise: Note, next up: CCS(=O)C(=O)N(O)c1ccc(Cl)cc1 (stereo unspecified)
Solution: > 100 µM

Exercise: Note, next up: FC(F)(F)c1ccc(C2ON=C(c3ccccc3)N2C23CC4CC(CC(C4)C2)C3)cc1 (stereo unspecified)
Solution: > 10 µM

Exercise: Note, next up: COc1cc2cc(Oc3ccc(NC(=O)Nc4cc(C(F)(F)F)cc(C(F)(F)F)c4)cc3)c(C)nc2cc1OCCN1CCOCC1
Solution: 7 µM

Exercise: Note, next up: CCC(NC(C)c1ccccc1)C(=O)c1ccc(OCc2ccccc2)c(OCc2ccccc2)c1 (stereo unspecified)
Solution: > 100 µM

Exercise: Note, next up: O=C(Nc1ccc(Oc2ccc(F)cc2)cc1)[C@@H]1C[C@@H](Cc2ccc(F)cc2)CN1C(=O)Cn1ccnn1
Solution: 51.9 µM

Exercise: Note, next up: Nc1nc(Nc2ccc(Cl)c(Cl)c2)nc2nc[nH]c12
Solution: 20.2 µM

Exercise: Note, next up: N#CCn1c(=O)c(Oc2ccc(F)cc2F)cc2cnc(NC3CCOCC3)nc21
Solution: > 25 µM

Exercise: Note, next up: Cc1ccccc1N=Nc1c(O)ccc2ccccc12
Solution: > 100 µM

Exercise: Note, next up: O=C1NC(=NCCc2ccc(F)cc2)S/C1=C\c1ccc2ncccc2c1
Solution: > 25 µM

Exercise: Note, next up: NC(N)=N/N=C/c1c(-c2ccsc2)nc2n1CCS2
Solution: > 100 µM

Exercise: Note, next up: CC(C)(O)/C1=C/C=C/CCCCCCCCCC1
Solution: 7.78 µM

Exercise: Note, next up: COc1cc(/C=C2\C(=O)N(Cc3ccc(Cl)cc3)c3ccccc32)cc(OC)c1OC
Solution: 11.1 µM

Exercise: Note, next up: O=C(Nc1ccc([N+](=O)[O-])cc1)Nn1cnnc1
Solution: 93.2 µM

Exercise: Note, next up: CSc1ccc(C2=C(c3ccccc3)C(=O)OC2)cc1
Solution: 1.22 µM

Exercise: Note, next up: C=C1C(=O)O[C@H]2[C@H]1CC/C(COC(=O)c1cc(OC)c(OC)c(OC)c1)=C\CC[C@@]1(C)O[C@@H]21
Solution: 32.7 µM

Exercise: Note, next up: COc1ccc(Nc2nc3ccccc3n3cccc23)cc1OC
Solution: > 100 µM

Exercise: Note, next up: C=C1C[C@H]2C=Nc3cc(OCCCOc4cc5c(cc4OC)C(=O)N4CC(=C)C[C@H]4C=N5)c(OC)cc3C(=O)N2C1
Solution: > 100 µM

Exercise: Note, next up: CCOC(=O)[C@@H](C)C[C@H](Cc1ccccc1)NC(=O)c1csc([C@@H](C[C@H](C(C)C)N(C)C(=O)[C@@H](NC(=O)[C@H]2CCCCN2C)C(C)(C)CC)OC(C)=O)n1
Solution: 2.17 µM

Exercise: Note, next up: CCOC1OC(CO)C(O)CC1n1ccc(=O)[nH]c1=O (stereo unspecified)
Solution: > 100 µM

Exercise: Note, next up: O=c1[nH]nc(Cc2ccccc2)n1/N=C/c1cccs1
Solution: > 100 µM

Exercise: Note, next up: Cn1c(=O)c2[nH]c(N=O)nc2n(C)c1=O
Solution: > 100 µM
